# STUDY_TARGET: C-Raf FL (Homo sapiens (Human), UniProt P04049, Y340E/Y341E)
# Sequence (P04049 whole entry Y340E/Y341E): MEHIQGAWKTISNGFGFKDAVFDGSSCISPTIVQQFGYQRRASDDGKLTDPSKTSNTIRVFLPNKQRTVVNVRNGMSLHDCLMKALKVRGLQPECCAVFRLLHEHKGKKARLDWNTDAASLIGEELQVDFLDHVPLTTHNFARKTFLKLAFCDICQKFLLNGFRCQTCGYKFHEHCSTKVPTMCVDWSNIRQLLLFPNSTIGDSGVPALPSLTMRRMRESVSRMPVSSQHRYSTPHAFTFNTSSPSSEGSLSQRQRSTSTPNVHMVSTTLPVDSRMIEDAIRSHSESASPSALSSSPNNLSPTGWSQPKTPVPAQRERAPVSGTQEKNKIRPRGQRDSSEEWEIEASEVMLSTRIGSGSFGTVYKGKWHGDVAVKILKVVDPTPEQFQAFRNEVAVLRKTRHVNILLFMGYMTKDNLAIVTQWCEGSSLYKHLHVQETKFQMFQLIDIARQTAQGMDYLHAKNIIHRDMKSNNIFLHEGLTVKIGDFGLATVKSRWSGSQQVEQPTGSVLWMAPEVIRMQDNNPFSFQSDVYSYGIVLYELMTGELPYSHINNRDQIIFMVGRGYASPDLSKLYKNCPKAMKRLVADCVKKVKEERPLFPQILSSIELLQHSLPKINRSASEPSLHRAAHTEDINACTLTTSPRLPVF
# Sequence (P63104 whole entry partner): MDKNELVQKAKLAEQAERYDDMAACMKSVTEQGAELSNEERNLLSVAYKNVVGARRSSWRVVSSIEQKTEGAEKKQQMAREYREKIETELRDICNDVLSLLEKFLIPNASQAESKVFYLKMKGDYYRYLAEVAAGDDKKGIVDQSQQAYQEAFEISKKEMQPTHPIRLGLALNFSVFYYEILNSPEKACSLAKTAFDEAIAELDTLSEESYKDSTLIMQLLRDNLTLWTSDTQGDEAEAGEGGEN
# TEST: In vitro Raf activity determination (Alpha Screen, phospho-MEK), C-Raf FL (full length, Y340E/Y341E)
# EXPERIMENTAL_PARAMETERS: ATP 1 μM; 60 min pre-incubation; 1 hour reaction; column head does not say FL or TR
ENDPOINT_NAME: IC50 (nM)
Give bare numbers, in nM.

Use these answered entries as a reference point.
Cc1ncc(NC(=O)c2ccnc(C(C)(C)F)c2)cc1-c1cc(OCCO)nc(C2(CF)COC2)c1 = 1.28
Cc1ccc(NC(=O)c2cnc(C(F)(F)F)cn2)cc1-c1cc(OCCO)nc(C2CCOCC2)c1 = 1
Cc1ccc(NC(=O)c2ccnc(C(C)(C)C#N)c2)cc1-c1cc(NCCO)nc(C2CCOCC2)c1 = 0.83

Note: attention shifts to another entry.
GET /value?item= Cc1ncc(NC(=O)c2cccc(C(F)(F)F)c2)cc1-c1cc(N2CCOC2=O)nc(C2(O)CCOCC2)c1 &field=IC50 returns 0.951
